- Tested on: NCI-H226 lung
- assay-method-text: NCI-60 one-dose screen, 48 h (100 = growth as untreated, 0 = no growth, -100 = all killed)
- condition-parameters: 10 µM
- Experimental: Growth inhibition of the NCI-H226 human Non-Small Cell Lung tumor cell line is measured as a screen for anti-cancer activity. Cells are grown in 96 well plates and exposed to the test compound for 48 hours. Compounds are tested at a single concentration, which is 10^-5 M for most compounds. The reported endpoint is percent growth (GI% or GIPRCNT), where numbers from 0 - 100% represent growth inhibition, and numbers from -100% - 0 represent cell death. […]
The panel holds about 83,000 compounds, 20% with a hit somewhere; the sample as a whole holds those more often. Activity calls are given as the source filed them. Rule for the calls: active = growth percent below 10; inactive = the rest.
recorded-metric: growth

>  <molecule>
O=C(c1ccc(O)cc1)c1ccc(O)cc1

>  <recorded-metric>
growth

>  <recorded-measurement>
98.1% (inactive)

$$$$
>  <molecule>
Cc1ccc(O)c(C(=O)c2ccccc2)c1

>  <recorded-metric>
growth

>  <recorded-measurement>
104% (inactive)

$$$$
>  <molecule>
OCc1cccc2ccccc12

>  <recorded-metric>
growth

>  <recorded-measurement>
112% (inactive)

$$$$
>  <molecule>
O=C(Cc1ccc(OCc2ccccc2)cc1)NCc1ccc2c(c1)OCO2

>  <recorded-metric>
growth

>  <recorded-measurement>
99.6% (inactive)

$$$$
>  <molecule>
c1cc2cccc3c4cccc5cccc(c(c1)c23)c54

>  <recorded-metric>
growth

>  <recorded-measurement>
98.8% (inactive)

$$$$
>  <molecule>
O=C(NN=C1CCCCC1)C(=O)NN=C1CCCCC1

>  <recorded-metric>
growth

>  <recorded-measurement>
101% (inactive)

$$$$
>  <molecule>
O=C1OC(=O)C2C1C1(Cl)C(Cl)=C(Cl)C2(Cl)C2C(=O)OC(=O)C21 (configuration not stated)

>  <recorded-metric>
growth

>  <recorded-measurement>
97.5% (inactive)

$$$$
